Just for reference, patent US20220153746A1 is where these values come from.

- method_notes: PK Phase (Group 2): plasma concentrations and pharmacokinetics of Compound 18 and its metabolite Compound 4 after once daily ocular instillation of Compound 18 nanosuspension for 7 days
- Assay type: in vivo, New Zealand white rabbits
- measurement_parameters: male, New Zealand white, rabbit, plasma, other: ocular instillation (eye drop), 0.821 mg/kg/day, 0.5 h; animal 207664; read-out: Day 7 Compound 18 Plasma Concentration
measured_endpoint: concentration at 0.5 h (ng/mL)

[[record]]
structure = "CCCc1nn(C)c2c(=O)[nH]c(-c3cc(S(=O)(=O)N4CC(CCCO[N+](=O)[O-])C4)ccc3OCC)nc12"
quantitative_result = 0.0978


* * *

- method_notes: TD Phase (Groups 1 and 3): plasma and ocular tissue concentrations and pharmacokinetics of Compound 18 and its metabolite Compound 4 after once daily ocular instillation of Compound 18 nanosuspension for 7 days
- Format: in vivo, New Zealand white rabbits
- measurement_parameters: male, New Zealand white, rabbit, plasma, other: ocular instillation, 0.8 mg/kg/day, TD Phase, Group 3, 0.5 h, Mean, BQL set to 0; read-out: Compound 18 Plasma Conc.
- Method: This example illustrates the procedures and results for the levels of Compound 18 and its metabolite Compound 4 in plasma and ocular tissues of normotensive rabbits following ocular instillation of Compound 18 once daily for 7 consecutive days. […] Plasma and tissue samples from treated animals (Groups 1-3) were analyzed for Compound 18 and its metabolite Compound 4 concentrations by LC-MS/MS. […] BA Assay: Quantitation Range 0.05 to 100 ng/mL for Compound 18, 0.15 to 100 ng/mL for Compound 4. […]
measured_endpoint: concentration at 0.5 h

[[record]]
structure = "CCCc1nn(C)c2c(=O)[nH]c(-c3cc(S(=O)(=O)N4CC(CCCO[N+](=O)[O-])C4)ccc3OCC)nc12"
measured_endpoint = "concentration at 0.5 h"
result = "0.261 ng/mL"

